biological target: recombinant human cIAP2-BIR3 protein (Homo sapiens, UniProt Q13489); construct: recombinant human cIAP2-BIR3 protein; purchased Reaction biology APT-11-372; assay: Recombinant human c-IAP2-BIR3 biochemical assay (HTRF, peptide displacement); conditions: 3.7 nM cIAP2-BIR3, 3.7 nM AbuRPF-K(5-Fam)-NH2 peptide, read-out: Protein binding IC50 (nM) c-IAP2
Sequence (Q13489 238-349 limits assumed): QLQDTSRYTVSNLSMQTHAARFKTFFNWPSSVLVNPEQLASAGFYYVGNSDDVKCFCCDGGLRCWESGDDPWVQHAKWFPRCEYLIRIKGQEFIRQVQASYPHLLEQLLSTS
REPORTED_PROPERTY: IC50 (nM)

INSERT INTO results (smiles_str, tested_on, val) VALUES
  ('COCCNC(=O)c1nc2c(cc1Cc1ccc(F)cc1)N(C(=O)CN1C[C@@H](C)NC[C@@H]1CN1[C@H](C)COC[C@H]1C)[C@@H](C)CO2', 'recombinant human cIAP2-BIR3 protein (Homo sapiens, UniProt Q13489)', 0.52);

P: C[C@@H]1CN(CC(=O)N2c3cc(Cc4ccc(F)cc4)c(C(=O)N[C@@H]4CCOC4)nc3OC[C@@H]2C)[C@@H](CN2[C@H](C)COC[C@H]2C)CN1
Q: C[C@@H]1CN(CC(=O)N2c3cc(Cc4ccc(F)cc4)c(C(=O)N4CC(O)C4)nc3OC[C@@H]2C)[C@@H](CN2[C@H](C)COC[C@H]2C)CN1
R: C[C@@H]1CN(CC(=O)N2c3cc(Cc4ccc(F)cc4)c(N4CCOCC4)nc3OC[C@@H]2C)[C@@H](CN2[C@H](C)COC[C@H]2C)CN1
In: List items by IC50 in falling order. Please list the labels according to the requested order.
Out: R, Q, P

====

molecular target: recombinant human cIAP1-BIR3 protein (Homo sapiens); construct: recombinant human cIAP1-BIR3 protein; purchased Reaction biology APT-11-370; assay: Recombinant human c-IAP1-BIR3 biochemical assay (HTRF, peptide displacement); settings: 1.2 nM cIAP1-BIR3, 3 nM AbuRPF-K(5-Fam)-NH2 peptide, read-out: Protein binding IC50 (nM) c-IAP1
Sequence (Q13490 253-363 limits assumed): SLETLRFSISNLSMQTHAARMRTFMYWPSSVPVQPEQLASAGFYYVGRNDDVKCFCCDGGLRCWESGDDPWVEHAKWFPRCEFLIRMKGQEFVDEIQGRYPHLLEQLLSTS
REPORTED_PROPERTY: IC50 (nM)

INSERT INTO results (smiles_str, reported_property, val) VALUES
  ('CC[C@H]1COc2ncc(Cc3ccc(F)cc3)cc2N1C(=O)CN1C[C@@H](C)NC[C@@H]1CN1CCOC[C@H]1C', 'IC50', 0.26),
  ('C[C@@H]1CN(CC(=O)N2c3cc(Cc4ccc(F)cc4)c(NC(=O)C4CC4)nc3OC[C@@H]2C)[C@@H](CN2[C@H](C)COC[C@H]2C)CN1', 'IC50', 0.2),
  ('C[C@@H]1CN(CC(=O)N2c3cc(Cc4ccc(F)cc4)c(C(=O)NCC4CCOCC4)nc3OC[C@@H]2C)[C@@H](CN2[C@H](C)COC[C@H]2C)CN1', 'IC50', 0.2);

I: C[C@@H]1CN(CC(=O)N2c3cc(Cc4ccc(F)cc4)c(C(=O)N(C)C)nc3OC[C@@H]2C)[C@@H](CN2[C@H](C)COC[C@H]2C)CN1
II: C[C@@H]1CN(CC(=O)N2c3cc(Cc4ccc(F)cc4)c(CO)nc3OC[C@@H]2C)[C@@H](CN2CCOC[C@H]2CO)CN1
In: Form field 'greater IC50' accepts I or II ; which applies? Select an item and report its label.
Out: II
(II: 1.7 nM, I: 0.22 nM)

A: C[C@@H]1CN(CC(=O)N2c3cc(Cc4ccc(F)cc4)c(C(=O)N4CCN(C)CC4)nc3OC[C@@H]2C)[C@@H](CN2[C@H](C)COC[C@H]2C)CN1
B: C[C@@H]1CN(CC(=O)N2c3cc(Cc4ccc(F)cc4)c(C(=O)NC4CC4)nc3OC[C@@H]2C)[C@@H](CN2[C@H](C)COC[C@H]2C)CN1
In: // which entry reports the smaller IC50, A or B ? Select an item and report its label.
Out: B
